Test: ATG_TA_CIS: Attagene CIS-FACTORIAL HepG2 Assay for human TA Basal Promoter (AID 2282964)
Settings: HepG2 Attagene CIS-factorial TA basal promoter reporter; actives raise or lower the signal
Activity calls are given as the source filed them. Rule for the calls: active = hit-call score of the fitted dose curve at least 0.9, where 1 is the maximum; inactive = score below 0.9.
Select the matching outcome among active, inactive

See these solved cases before continuing.
c1ccc2[nH]cnc2c1 ... inactive
CCCCCCCC/C=C\CCCCCCCC(=O)OCC ... inactive
C#CC(C)(O)CC(C)C (stereo not drawn) ... inactive
CCCCC1CCC(O)CC1 (stereo not drawn) ... inactive
O=C(Nc1ccc2c(O)c(N=Nc3ccc(N=Nc4ccc(S(=O)(=O)O)cc4)cc3)c(S(=O)(=O)O)cc2c1)c1ccccc1 ... inactive

What was the test verdict on Cc1ccc(S(N)(=O)=O)cc1 ? inactive

What was the test verdict on Nc1c(S(=O)(=O)O)cc(Br)c2c1C(=O)c1ccccc1C2=O ? active

What was the test verdict on C=C(C#N)C(=O)OCC ? inactive

What was the test verdict on CC(C)(C)CC(C)(C)c1ccc(OCCOCC[N+](C)(C)Cc2ccccc2)cc1 ? inactive

What was the test verdict on C=CCCCCCCCCCC ? inactive

What was the test verdict on Cc1[nH]c(=O)c(C#N)cc1-c1ccncc1 ? inactive

What was the test verdict on CCCC(=O)c1ccccc1 ? inactive

What was the test verdict on CCCCCCC(CO)CCCC (stereo not drawn) ? inactive

What was the test verdict on Nc1ccccc1[N+](=O)[O-] ? inactive

What was the test verdict on NC(=S)NNC(N)=S ? inactive

What was the test verdict on C=C(C)[C@H]1CC=C(C)C(=O)C1 ? inactive

What was the test verdict on CC(=O)OCCCc1ccccc1 ? inactive

What was the test verdict on CC(=O)CC(=O)Nc1ccccc1 ? inactive

What was the test verdict on CCCSc1ccc2nc(NC(=O)OC)[nH]c2c1 ? inactive

What was the test verdict on CCOc1ccc(NC(=O)CC(C)O)cc1 (stereo not drawn) ? inactive

What was the test verdict on Cc1cc(C)nc(NS(=O)(=O)c2ccc(N)cc2)n1 ? inactive

What was the test verdict on COc1ccc(N=Nc2cc(C)c(N=Nc3ccc(S(=O)(=O)O)cc3)cc2OC)cc1 ? inactive

What was the test verdict on O=[N+]([O-])c1ccc(O)cc1C(F)(F)F ? inactive

What was the test verdict on CC1=C(Br)C(=O)C(Br)=C/C1=C(/c1ccccc1S(=O)(=O)O)c1cc(Br)c(O)c(Br)c1C ? inactive

What was the test verdict on CCN(CC)C(=O)N(CC)CC ? inactive

What was the test verdict on CC1(C)COCN1 ? inactive

What was the test verdict on COC(=O)c1ccc(OC)cc1 ? inactive

What was the test verdict on CC(=O)c1c(C)c([N+](=O)[O-])c(C(C)(C)C)c([N+](=O)[O-])c1C ? inactive

* * *

Read-out: Matrix Metallopeptidase 1 (MMP1), MMP1 (gene 4312)
Assay: BSK_hDFCGF_MMP1: BioMAP Diversity Plus: hDFCGF Assay for Matrix Metallopeptidase 1 (MMP1) Biomarker Activity (AID 2283064)
Conditions: primary human foreskin fibroblasts; actives raise or lower the signal
Active and inactive are the calls of the source. How the source made its calls: active means hit-call score of the fitted dose curve at least 0.9, where 1 is the maximum; inactive means score below 0.9.
Select the matching outcome among Y (active), N (inactive)

See these solved cases before continuing.
O=C(Nc1ccc2c(O)c(N=Nc3ccc(N=Nc4ccc(S(=O)(=O)O)cc4)cc3)c(S(=O)(=O)O)cc2c1)c1ccccc1 ... N
CCOC(=O)C(C#N)=C(c1ccccc1)c1ccccc1 ... N
Clc1cc(Cl)c(-c2c(Cl)c(Cl)cc(Cl)c2Cl)cc1Cl ... Y
C[C@@H]1CCN(C(=O)[C@H](CCCN=C(N)N)NS(=O)(=O)c2cccc3c2NC[C@H](C)C3)[C@@H](C(=O)O)C1 ... N
CC(C)(C)CC(C)(C)c1ccc(OCCOCC[N+](C)(C)Cc2ccccc2)cc1 ... Y
Oc1c(Cl)cc(Cl)c(Cl)c1Cc1c(O)c(Cl)cc(Cl)c1Cl ... Y
CCC(C)c1cc([N+](=O)[O-])cc([N+](=O)[O-])c1OC(=O)OC(C)C (stereo not given) ... Y
CS(=O)(=O)OCCCCOS(C)(=O)=O ... N
CC=Cc1ccc(OCC)c(O)c1 ... N

Kindly review the next compound as well.
What was the test verdict on O=C1c2ccccc2C(=O)c2c(O)ccc(O)c21 ? N

* * *

Biological target: Peroxisome proliferator-activated receptor gamma (Homo sapiens) (UniProt P37231)
Sequence (P37231 whole entry, looked up): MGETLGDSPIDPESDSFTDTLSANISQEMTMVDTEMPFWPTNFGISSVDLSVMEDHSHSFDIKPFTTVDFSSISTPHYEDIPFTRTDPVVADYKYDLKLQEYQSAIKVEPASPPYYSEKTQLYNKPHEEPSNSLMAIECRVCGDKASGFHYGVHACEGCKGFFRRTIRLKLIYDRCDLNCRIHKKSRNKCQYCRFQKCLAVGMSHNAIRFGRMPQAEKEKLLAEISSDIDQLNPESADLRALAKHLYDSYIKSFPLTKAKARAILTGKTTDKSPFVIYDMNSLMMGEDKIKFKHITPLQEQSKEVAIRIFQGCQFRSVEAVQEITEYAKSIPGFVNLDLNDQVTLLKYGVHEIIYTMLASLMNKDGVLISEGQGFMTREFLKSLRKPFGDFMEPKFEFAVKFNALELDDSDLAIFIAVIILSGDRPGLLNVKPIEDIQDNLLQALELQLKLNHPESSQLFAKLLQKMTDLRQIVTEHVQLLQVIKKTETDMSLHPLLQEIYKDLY
Assay: ATG_PPARg_TRANS: Attagene TRANS-FACTORIAL HepG2 Assay for human Peroxisome Proliferator-activated Receptor-gamma (PPARg) (AID 2283007)
Records with an inconclusive call do not appear. Active and inactive are the calls of the source. The calls were made as follows: active = hit-call score of the fitted dose curve at least 0.9, where 1 is the maximum; inconclusive = response in the unintended direction; inactive = score below 0.9.
Select the matching outcome among active, inactive

See these solved cases before continuing.
C[C@H]1C[C@@H](O)CC(C)(C)C1 ... inactive
CC(C)NCC(O)COc1ccc(CC(N)=O)cc1 (stereo not drawn) ... inactive
CCc1ccc(O)c(OC)c1 ... inactive
CCCCCCC(CO)CCCC (stereo not drawn) ... inactive

What was the test verdict on CC(C)CC(C)CC(O)CC(C)C (stereo not drawn) ? inactive

What was the test verdict on CN(C)C(=O)Nc1ccc(Oc2ccc(Cl)cc2)cc1 ? active

What was the test verdict on CCCOCCO ? inactive

What was the test verdict on CS(=O)(=O)c1ccc(C2=C(c3ccccc3)C(=O)OC2)cc1 ? inactive

* * *

Biological target: rat Thyrotropin Releasing Hormone Receptor (TRH), Trhr (gene 25570) (UniProt Q01717)
Sequence (Q01717 whole entry, looked up): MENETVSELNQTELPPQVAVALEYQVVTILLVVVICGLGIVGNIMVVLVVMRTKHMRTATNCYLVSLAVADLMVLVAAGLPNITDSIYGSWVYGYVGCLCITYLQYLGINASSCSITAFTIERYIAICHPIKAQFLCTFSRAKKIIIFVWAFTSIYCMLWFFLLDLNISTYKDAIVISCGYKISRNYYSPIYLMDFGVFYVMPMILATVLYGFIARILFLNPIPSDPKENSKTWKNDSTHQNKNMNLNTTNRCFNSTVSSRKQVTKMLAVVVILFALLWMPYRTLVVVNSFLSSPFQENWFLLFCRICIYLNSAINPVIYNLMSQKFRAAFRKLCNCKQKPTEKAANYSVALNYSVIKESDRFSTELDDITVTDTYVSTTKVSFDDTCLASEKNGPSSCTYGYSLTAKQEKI
Assay: NVS_GPCR_rTRH: NovaScreen (NVS) G Protein-Coupled Receptor Assay for rat Thyrotropin Releasing Hormone Receptor (TRH) (AID 2283329);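 note: hit means lower bound tracer signal versus DMSO baseline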
Experimental: NVS_GPCR_rTRH is a biochemical, single-readout assay that uses extracted gene-proteins from Rat forebrain membranes in a tissue-based cell-free assay. Measurements were taken 4 hours after chemical dosing in a 48-well plate.NVS_GPCR_rTRH is one of one assay component(s) measured or calculated from the NVS_GPCR_rTRH assay. […] This assay endpoint, NVS_GPCR_rTRH, was analyzed in the positive analysis fitting direction relative to DMSO as the negative control and baseline of activity. […]
Results filed as inconclusive are left out. Activity calls are given as the source filed them. How the source made its calls: active means hit-call score of the fitted dose curve at least 0.9, where 1 is the maximum; inconclusive means response in the unintended direction; inactive means score below 0.9.
MEASURED ATTRIBUTE: outcome

C1=CC2C3C=CC(C3)C2C1 (centres undefined) ... inactive
CSCCC=O ... inactive
OC[C@H]1O[C@@H]2O[C@H]3[C@H](O)[C@@H](O)[C@@H](O[C@H]4[C@H](O)[C@@H](O)[C@@H](O[C@H]5[C@H](O)[C@@H](O)[C@@H](O[C@H]6[C@H](O)[C@@H](O)[C@@H](O[C@H]7[C@H](O)[C@@H](O)[C@@H](O[C@H]8[C@H](O)[C@@H](O)[C@@H](O[C@H]9[C@H](O)[C@@H](O)[C@@H](O[C@H]1[C@H](O)[C@H]2O)O[C@@H]9CO)O[C@@H]8CO)O[C@@H]7CO)O[C@@H]6CO)O[C@@H]5CO)O[C@@H]4CO)O[C@@H]3CO ... inactive
COC(=O)c1ccc(C)cc1C1=NC(C)(C(C)C)C(=O)N1 (centres undefined) (tested in a mixture with another compound) ... inactive

* * *

Target: CCAAT/enhancer-binding protein beta (Homo sapiens) (UniProt P17676)
Sequence (P17676 whole entry, looked up): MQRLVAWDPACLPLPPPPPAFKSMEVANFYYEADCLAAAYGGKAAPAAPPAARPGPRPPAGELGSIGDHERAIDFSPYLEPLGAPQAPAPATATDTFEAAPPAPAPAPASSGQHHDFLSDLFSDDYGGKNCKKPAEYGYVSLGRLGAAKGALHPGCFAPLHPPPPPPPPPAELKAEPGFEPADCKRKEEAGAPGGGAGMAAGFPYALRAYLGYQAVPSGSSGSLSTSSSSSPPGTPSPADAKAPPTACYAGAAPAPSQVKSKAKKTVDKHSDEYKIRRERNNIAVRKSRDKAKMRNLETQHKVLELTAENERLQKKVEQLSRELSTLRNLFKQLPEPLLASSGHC
Assay: ATG_C_EBP_CIS: Attagene CIS-FACTORIAL HepG2 Assay for human CCAAT/Enhancer Binding Protein (C/EBP) beta (AID 2282927)
Conditions: HepG2 Attagene cis-factorial transcription factor reporter; actives raise or lower the signal
Calls of active or inactive are those of the source. The calls were made as follows: active = hit-call score of the fitted dose curve at least 0.9, where 1 is the maximum; inactive = score below 0.9.
Select the matching outcome among active, inactive

CCCCC1(COC(=O)CCC(=O)O)C(=O)N(c2ccccc2)N(c2ccccc2)C1=O ... inactive
OCCc1ccccc1 ... inactive
CN(C)c1cccc(O)c1 ... inactive
C=CC(C)(O)CCC=C(C)C (stereo unspecified) ... inactive
O=C(O)CCCCCCCCC(=O)O ... inactive
CCCCSCCCC ... inactive

What was the test verdict on O=C1c2ccccc2C(=O)c2c(O)ccc(O)c21 ? inactive

What was the test verdict on CCOC(=O)CCc1ccccc1 ? inactive

* * *

Experiment: ATG_BRE_CIS: Attagene CIS-FACTORIAL HepG2 Assay for human Bone Morphogenetic Protein (BMP) Response Element (BRE) (AID 2282933)
Conditions: HepG2 BMP response element reporter, Attagene transcription factor profiling; actives raise or lower the signal
Calls of active or inactive are those of the source. How the source made its calls: active means hit-call score of the fitted dose curve at least 0.9, where 1 is the maximum; inactive means score below 0.9.
Select the matching outcome among 1 (yes) for active, 0 (no) for inactive

Cc1ncc[nH]1 ... 0 (no)

What was the test verdict on OCC(O)c1ccccc1 (stereo not drawn) ? 0 (no)

What was the test verdict on CC(C)CCCCCCCCCCCCCCC(=O)O ? 0 (no)

What was the test verdict on IC(I)I ? 0 (no)

What was the test verdict on CCCC(=O)c1ccccc1 ? 0 (no)

What was the test verdict on O=C(O)c1cc(C(=O)O)cc([N+](=O)[O-])c1 ? 0 (no)
